Recorded measurements of cytotoxicity at 70.5 h, one per entry
Assay: Human HepG2 cell viability assay in 384 well format
Format: toxicity, cell-based
Set-up: dose 125 nL, time 70.5 hour; concentration not given beside the values
Conditions: HepG2 cells, read-out: Inhibition
Reply numerically in %, unit not repeated.

cytotoxicity at 70.5 h recorded for this molecule, Cc1cc(C)nc(Nc2nccnc2C2CCCN(C(C)C)C2)n1 (stereo not given) , is 1.6

More entries:
Item: O=C(CN1CCCC1Cn1cccn1)NCCOc1cccc(F)c1 (stereo not given) | cytotoxicity at 70.5 h: -0.693

Query Cc1ccc(-c2nnc(CN3CCOC(Cn4cccn4)C3)o2)cc1 (stereo not given) yields cytotoxicity at 70.5 h of -7.48

The molecule listed as `CN(Cc1ccncc1)C(=O)NCc1cn(-c2ccccc2)nn1` has a reported cytotoxicity at 70.5 h of -8.45

For `CCC(CC)NC(=O)CN1CCSCC1` the molecule record lists cytotoxicity at 70.5 h as 3.72

Record CSc1ccc(CNC(c2ccccc2F)c2nccn2C)cc1 (stereo not given) , field cytotoxicity at 70.5 h: 0.516

get_value(item= `Cc1ncccc1Oc1nccnc1C1CCN(C(C)C)CC1` , readout=cytotoxicity at 70.5 h) returns -2.72

// sample Cc1cnc(C(=O)N2CCCC(n3cccn3)C2)cn1 (stereo not given) , its cytotoxicity at 70.5 h was -1.48
